- System: Enterococcus sp.
- MEASUREMENT_NOTES: In vitro antibacterial evaluation: minimum inhibitory concentration (MIC), broth dilution method
- Format: cell-based
- EXPERIMENTAL_PARAMETERS: broth dilution, 5×10^5 CFU/mL, 18 hours at 35° C.
Here the recorded MIC Enterococccus faecalis (ATCC 29212) is given for each entry.
Numeric answer only, unit µg/mL assumed.

Input: Determine its reported MIC Enterococccus faecalis (ATCC 29212): CC(c1ccccc1)C1NC(=O)CNC(=O)C(CO)NC(=O)C(C(O)C2CNC(=N)N2C2OC(CO)C(O)C(O)C2O)NC(=O)C(C(O)C2CNC(=N)N2)NC(=O)C(Cc2ccc(OC3OC(CO)C(OC4OC5COC(c6ccsc6)OC5C(O)C4O)C(O)C3O)cc2)NC1=O (stereo not shown)
Output: 8

====

Measured MIC Staphylococcus aureus (GC 4535) values are reported for all entries that follow.
- Test system: Staphylococcus sp.
- MEASUREMENT_NOTES: In vitro antibacterial evaluation: minimum inhibitory concentration (MIC), broth dilution method
- Type: cell-based
- EXPERIMENTAL_PARAMETERS: broth dilution, 18 hours at 35° C.
# unit: µg/mL | format: bare number

Solved entries (count: 3):
COMPOUND	UNIT_TAG	MIC Staphylococcus aureus (GC 4535)
CC(c1ccccc1)C1NC(=O)CNC(=O)C(CO)NC(=O)C(C(O)C2CNC(=N)N2C2OC(CO)C(O)C(O)C2O)NC(=O)C(C(O)C2CNC(=N)N2)NC(=O)C(Cc2ccc(OC3OC(CO)C(OC4OC(COC(=O)Cc5ccccc5)C(O)C(O)C4O)C(O)C3O)cc2)NC1=O (stereo not shown) [Example 98c]	µg/mL	4
CCCCCC(=O)OCC1OC(OC2C(CO)OC(Oc3ccc(CC4NC(=O)C(C(C)c5ccccc5)NC(=O)CNC(=O)C(CO)NC(=O)C(C(O)C5CNC(=N)N5C5OC(CO)C(O)C(O)C5O)NC(=O)C(C(O)C5CNC(=N)N5)NC4=O)cc3)C(O)C2O)C(O)C(O)C1O (stereo not shown) [Example 95b]	µg/mL	2
CCCCCCC(=O)OCC1OC(OC2C(CO)OC(Oc3ccc(CC4NC(=O)C(C(C)c5ccccc5)NC(=O)CNC(=O)C(CO)NC(=O)C(C(O)C5CNC(=N)N5C5OC(CO)C(O)C(O)C5O)NC(=O)C(C(O)C5CNC(=N)N5)NC4=O)cc3)C(O)C2O)C(O)C(O)C1O (stereo not shown) [Example 97b]	µg/mL	1

Pending compound:
Input: Report MIC Staphylococcus aureus (GC 4535) for CCCCCCC(=O)OCC1OC(Oc2ccc(CC3NC(=O)C(C(C)c4ccccc4)NC(=O)CNC(=O)C(CO)NC(=O)C(C(O)C4CNC(=N)N4C4OC(CO)C(O)C(O)C4O)NC(=O)C(C(O)C4CNC(=N)N4)NC3=O)cc2)C(O)C(O)C1OC1OC(CO)C(O)C(O)C1O (stereo not shown) [Example 97a]
Output: 2

====

- Test system: Staphylococcus sp.
- MEASUREMENT_NOTES: In vitro antibacterial evaluation: minimum inhibitory concentration (MIC), broth dilution method
- Type: cell-based
- EXPERIMENTAL_PARAMETERS: strain GC 4541; broth dilution, 18 hours at 35° C.
MEASURED_ATTRIBUTE: MIC Staphylococcus aureus (GC 4541)
Record the result as number plus unit.

COMPOUND	MIC Staphylococcus aureus (GC 4541)
CC(c1ccccc1)C1NC(=O)CNC(=O)C(CO)NC(=O)C(C(O)C2CNC(=N)N2C2OC(CO)C(O)C(O)C2O)NC(=O)C(C(O)C2CNC(=N)N2)NC(=O)C(Cc2ccc(OC3OC(CO)C(OC4OC5COC(c6ccc(-c7ccsc7)cc6)OC5C(O)C4O)C(O)C3O)cc2)NC1=O (centres unmarked)	8 µg/mL

Please turn your attention to the following entry.
Input: Identify measured MIC Staphylococcus aureus (GC 4541) associated with CC(c1ccccc1)C1NC(=O)CNC(=O)C(CO)NC(=O)C(C(O)C2CN(Cc3ccc(-c4ccccc4)cc3)C(=N)N2C2OC(CO)C(O)C(O)C2O)NC(=O)C(C(O)C2CNC(=NCc3ccc(-c4ccccc4)cc3)N2Cc2ccc(-c3ccccc3)cc2)NC(=O)C(Cc2ccc(OC3OC(CO)C(OC4OC(CO)C(O)C(O)C4O)C(O)C3O)cc2)NC1=O (centres unmarked)
Output: 8 µg/mL

====

- Tested on: Enterococcus sp.
- MEASUREMENT_NOTES: In vitro antibacterial evaluation: minimum inhibitory concentration (MIC), broth dilution method
- Type: cell-based
- EXPERIMENTAL_PARAMETERS: broth dilution, inoculum 5×10^5 CFU/mL, 18 hours at 35° C.
Measured MIC Enterococcus faecalis (GC 6189) accompanies every entry in the list below.

Study these solved cases before continuing.
COMPOUND	MIC Enterococcus faecalis (GC 6189)
CC(c1ccccc1)C1NC(=O)CNC(=O)C(CO)NC(=O)C(C(O)C2CNC(=N)N2C2OC(CO)C(O)C(O)C2O)NC(=O)C(C(O)C2CNC(=N)N2)NC(=O)C(Cc2ccc(OC3OC(CO)C(OC4OC5COC(c6ccc(C(=O)c7ccc(I)cc7)cc6)OC5C(O)C4O)C(O)C3O)cc2)NC1=O (centres unmarked)	1 µg/mL
CCOc1cc(C2OCC3OC(OC4C(CO)OC(Oc5ccc(CC6NC(=O)C(C(C)c7ccccc7)NC(=O)CNC(=O)C(CO)NC(=O)C(C(O)C7CNC(=N)N7C7OC(CO)C(O)C(O)C7O)NC(=O)C(C(O)C7CNC(=N)N7)NC6=O)cc5)C(O)C4O)C(O)C(O)C3O2)ccc1[N+](=O)[O-] (centres unmarked)	32 µg/mL
N=C1NCC(C(O)C2NC(=O)C(Cc3ccc(OC4OC(CO)C(OC5OC6COC7(OC6C(O)C5O)C5CC6CC(C5)CC7C6)C(O)C4O)cc3)NC(=O)C(Cc3ccccc3)NC(=O)CNC(=O)C(CO)NC(=O)C(C(O)C3CNC(=N)N3C3OC(CO)C(O)C(O)C3O)NC2=O)N1 (centres unmarked)	1 µg/mL
N=C1NCC(C(O)C2NC(=O)C(Cc3ccc(OC4OC(CO)C(OC5OC6COC(CCc7ccccc7)OC6C(O)C5O)C(O)C4O)cc3)NC(=O)C(CC3CCCCC3)NC(=O)CNC(=O)C(CO)NC(=O)C(C(O)C3CNC(=N)N3C3OC(CO)C(O)C(O)C3O)NC2=O)N1 (centres unmarked)	1 µg/mL
CC(c1ccccc1)C1NC(=O)CNC(=O)C(CO)NC(=O)C(C(O)C2CNC(=N)N2C2OC(CO)C(O)C(O)C2O)NC(=O)C(C(O)C2CNC(=N)N2)NC(=O)C(Cc2ccc(OC3OC(CO)C(OC4OC5COC6(CCCCCCCCCCC6)OC5C(O)C4O)C(O)C3O)cc2)NC1=O (centres unmarked)	1 µg/mL
CC(c1ccccc1)C1NC(=O)CNC(=O)C(CO)NC(=O)C(C(O)C2CNC(=N)N2C2OC(CO)C(O)C(O)C2O)NC(=O)C(C(O)C2CNC(=N)N2)NC(=O)C(Cc2ccc(OC3OC(CO)C(OC4OC5COC6(CC7CCC6(C)C7(C)C)OC5C(O)C4O)C(O)C3O)cc2)NC1=O (centres unmarked)	1 µg/mL

Input: Please give the documented MIC Enterococcus faecalis (GC 6189) of CC(c1ccccc1)C1NC(=O)CNC(=O)C(CO)NC(=O)C(C(O)C2CNC(=N)N2C2OC(CO)C(O)C(O)C2O)NC(=O)C(C(O)C2CNC(=N)N2)NC(=O)C(Cc2ccc(OC3OC(CO)C(OC4OC5COC6(OC5C(O)C4O)C4CCCC6CCC4)C(O)C3O)cc2)NC1=O (centres unmarked)
Output: 8 µg/mL

Input: Please report MIC Enterococcus faecalis (GC 6189) for the following compound: CC(c1ccccc1)C1NC(=O)CNC(=O)C(CO)NC(=O)C(C(O)C2CNC(=N)N2C2OC(CO)C(O)C(O)C2O)NC(=O)C(C(O)C2CNC(=N)N2)NC(=O)C(Cc2ccc(OC3OC(CO)C(OC4OC5COC6(CCSCC6)OC5C(O)C4O)C(O)C3O)cc2)NC1=O (centres unmarked)
Output: 16 µg/mL

Input: Provide MIC Enterococcus faecalis (GC 6189) value for the following compound: CC(c1ccccc1)C1NC(=O)CNC(=O)C(CO)NC(=O)C(C(O)C2CNC(=N)N2C2OC(CO)C(O)C(O)C2O)NC(=O)C(C(O)C2CNC(=N)N2)NC(=O)C(Cc2ccc(OC3OC(CO)C(OC4OC5COC6(CCCCC6)OC5C(O)C4O)C(O)C3O)cc2)NC1=O (centres unmarked)
Output: 8 µg/mL

Input: Please give measured MIC Enterococcus faecalis (GC 6189) of the following entry: CC(C1CCCCC1)C1NC(=O)CNC(=O)C(CO)NC(=O)C(C(O)C2CNC(=N)N2C2OC(CO)C(O)C(O)C2O)NC(=O)C(C(O)C2CNC(=N)N2)NC(=O)C(Cc2ccc(OC3OC(CO)C(OC4OC5COC(c6ccccc6)OC5C(O)C4O)C(O)C3O)cc2)NC1=O (centres unmarked)
Output: 1 µg/mL

Input: Entry COc1ccc(COCC2OC(OC3C(CO)OC(Oc4ccc(CC5NC(=O)C(C(C)c6ccccc6)NC(=O)CNC(=O)C(CO)NC(=O)C(C(O)C6CNC(=N)N6C6OC(CO)C(O)C(O)C6O)NC(=O)C(C(O)C6CNC(=N)N6)NC5=O)cc4)C(O)C3O)C(O)C(O)C2O)cc1 (centres unmarked) needs its MIC Enterococcus faecalis (GC 6189) filled in; supply it.
Output: 64 µg/mL

Input: Identify measured MIC Enterococcus faecalis (GC 6189) corresponding to COc1ccc2cc(COC3C(CO)OC(OC4C(CO)OC(Oc5ccc(CC6NC(=O)C(C(C)c7ccccc7)NC(=O)CNC(=O)C(CO)NC(=O)C(C(O)C7CNC(=N)N7C7OC(CO)C(O)C(O)C7O)NC(=O)C(C(O)C7CNC(=N)N7)NC6=O)cc5)C(O)C4O)C(O)C3O)ccc2c1 (centres unmarked) [Example 230a]
Output: 1 to 4 µg/mL

Input: Indicate the recorded MIC Enterococcus faecalis (GC 6189) value for this compound: CC(c1ccccc1)C1NC(=O)CNC(=O)C(CO)NC(=O)C(C(O)C2CNC(=N)N2C2OC(CO)C(O)C(O)C2O)NC(=O)C(C(O)C2CNC(=N)N2)NC(=O)C(Cc2ccc(OC3OC(CO)C(OC4OC(COCc5ccc(OCc6ccccc6)cc5)C(O)C(O)C4O)C(O)C3O)cc2)NC1=O (centres unmarked)
Output: 2 to 4 µg/mL

Input: Return the recorded MIC Enterococcus faecalis (GC 6189) value; entry: CC(C)=CCN1CC(C(O)C2NC(=O)C(C(O)C3CNC(=N)N3)NC(=O)C(Cc3ccc(OC4OC(CO)C(OC5OC6COC7(OC6C(O)C5O)C5CC6CC(C5)CC7C6)C(O)C4O)cc3)NC(=O)C(C(C)c3ccccc3)NC(=O)CNC(=O)C(CO)NC2=O)N(C2OC(CO)C(O)C(O)C2O)C1=N (centres unmarked)
Output: 16 µg/mL
